Where do the numbers come from? From ChEMBL document CHEMBL4765357.

Ki values, listed per item
molecular target: Long-chain-fatty-acid--AMP ligase FadD28 (Mycobacterium tuberculosis, UniProt P9WQ59); assay: Inhibition of Mycobacterium tuberculosis H37Rv FAAL28 Spectra expressed in Escherichia coli BL21(DE3) cells assessed as cleavage of MEsG by spectroscopic analysis; details: read-out: Ki(app)
Sequence (P9WQ59 whole entry): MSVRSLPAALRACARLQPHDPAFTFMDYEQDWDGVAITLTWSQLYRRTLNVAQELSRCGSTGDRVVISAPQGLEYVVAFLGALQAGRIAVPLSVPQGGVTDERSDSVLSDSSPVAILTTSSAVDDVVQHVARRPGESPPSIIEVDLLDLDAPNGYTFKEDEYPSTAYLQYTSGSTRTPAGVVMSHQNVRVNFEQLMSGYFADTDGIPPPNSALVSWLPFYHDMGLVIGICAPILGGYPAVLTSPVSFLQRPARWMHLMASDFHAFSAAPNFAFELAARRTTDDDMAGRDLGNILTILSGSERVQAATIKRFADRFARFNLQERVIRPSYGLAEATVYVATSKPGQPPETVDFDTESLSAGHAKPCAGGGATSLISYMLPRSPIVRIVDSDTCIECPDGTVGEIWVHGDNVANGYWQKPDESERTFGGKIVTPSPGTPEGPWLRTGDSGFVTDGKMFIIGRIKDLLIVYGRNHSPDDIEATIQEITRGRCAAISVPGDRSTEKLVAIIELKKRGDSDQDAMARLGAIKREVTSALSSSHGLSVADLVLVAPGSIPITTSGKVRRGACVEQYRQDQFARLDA
The reply should be a number in µM, with the unit left off.

Ki recorded for this molecule, `Nc1ncnc2c1ncn2[C@@H]1O[C@H](COS(=O)(=O)NC(=O)CCCCCCCCCCSc2ccccc2)[C@@H](O)[C@H]1O` , is 6.3

Ki recorded for this molecule, `Nc1ncnc2c1ncn2[C@@H]1O[C@H](COS(=O)(=O)NC(=O)CCCCCCCCCCCOc2ccccc2)[C@@H](O)[C@H]1O` , is 2.6
